pEC50 reference
Target: T1, human CCR8 (human, UniProt P51685 1-355)
T1 construct: whole, on cells; construct used for the overexpressing cell lines is not described; also called hCCR8
T1 sequence (P51685 whole entry): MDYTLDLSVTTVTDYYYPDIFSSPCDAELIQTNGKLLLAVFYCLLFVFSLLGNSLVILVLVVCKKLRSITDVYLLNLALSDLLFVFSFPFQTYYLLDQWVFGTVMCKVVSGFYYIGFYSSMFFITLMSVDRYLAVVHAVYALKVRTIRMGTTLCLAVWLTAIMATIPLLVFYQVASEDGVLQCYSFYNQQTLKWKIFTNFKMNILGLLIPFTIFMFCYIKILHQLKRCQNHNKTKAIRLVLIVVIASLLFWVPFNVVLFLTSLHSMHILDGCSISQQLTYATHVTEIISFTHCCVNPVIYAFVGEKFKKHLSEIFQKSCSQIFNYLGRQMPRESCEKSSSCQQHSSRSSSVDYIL
Assay: FACS, CHO-K1-hCCR8 cells
Protocol: Cells overexpressing human CCR8 were digested with pancreatin, counted and resuspended to a cell density of 1E6 cells/mL. The cell suspension was added to a 96-well V-bottom plate at 100 μL/well and centrifuged at 300 g for 5 min, and the supernatant was discarded. The anti-CCR8 antibodies provided herein was used as a primary antibody and diluted in a 5-fold gradient with an FACS buffer (DPBS containing 2% FBS) from 200 nM. […]
In textbook form, pEC50 equals minus log to base ten of the concentration in mol/L.

Recorded results for 2 binders are shown here.
binder	pEC50
PR004524 (antibody, human IgG1, kappa, V domains shown, humanized variant of PR004128, IgG1 with DE mutation) VH: EVQLVESGGGLVQPGGSLKLSCAASGFTFNTYAMNWVRQASGKGLEWVGRIRSKSNNYATYYADSVKDRFTISRDDSKSTLYLQMNSLKTEDTAVYYCVRGKENGNYYAMDFWGQGTTVTVSS VL: DIVMTQSPLSLPVTPGEPASISCRSSKSLLHSNGNTYLYWFLQKPGQSPQLLIYRMSNLASGVPDRFSGSGSGTDFTLKISRVEAEDVGVYYCMQHLEYPLTFGQGTKLEIKR	9.77
PR004523 (antibody, human IgG1, kappa, V domains shown, humanized variant of PR004128, IgG1 with DE mutation) VH: EVQLVESGGGLVQPGGSLRLSCAASGFTFNTYAMNWVRQAPGKGLEWVSRIRSKSNNYATYYADSVKDRFTISRDDSKSTLYLQMNSLRAEDTAVYYCVRGKENGNYYAMDFWGQGTTVTVSS VL: DIVMTQSPLSLPVTPGEPASISCRSSKSLLHSNGNTYLYWFLQKPGQSPQLLIYRMSNLASGVPDRFSGSGSGTDFTLKISRVEAEDVGVYYCMQHLEYPLTFGQGTKLEIKR	9.00

Now take the following binder into account.
Find the recorded pEC50 belonging to PR004519 (antibody, human IgG1, kappa, V domains shown, humanized variant of PR004128, IgG1 with DE mutation) VH: EVQLVESGGGLVKPGGSLRLSCAASGFTFNTYAMNWVRQAPGKGLEWVGRIRSKSNNYATYYADSVKDRFTISRDDSKSTLYLQMNSLKTEDTAVYYCVRGKENGNYYAMDFWGQGTTVTVSS VL: DIVMTQSPLSLPVTPGEPASISCRSSKSLLHSNGKIYLYWFLQKPGQSPQLLIYRMSNLASGVPDRFSGSGSGTDFTLKISRVEAEDVGVYYCMQHLEYPLTFGQGTKLEIKR and report it.
9.17
